TESTED_SYSTEM: ACVR2A (Homo sapiens (Human), UniProt P27037)
Sequence (P27037 26-118): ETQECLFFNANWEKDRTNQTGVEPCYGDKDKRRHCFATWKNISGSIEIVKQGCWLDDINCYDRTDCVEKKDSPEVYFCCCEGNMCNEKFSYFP
PROCEDURE_SUMMARY: SPR, receptor-Fc dimer captured (avidity), single 80 nM injections
pKd: −log10 of the molar value.
READOUT: pKd

q: Give pKd for BMP15 (protein) chain 1: PENNQCSLHPFQISFRQLGWDHWIIAPPFYTPNYCKGTCLRVLRDGLNSPNHAIIQNLINQLVDQSVPRPSCVPYKYVPISVLMIEANGSILYKEYEGMIAESCTCR chain 2: PENNQCSLHPFQISFRQLGWDHWIIAPPFYTPNYCKGTCLRVLRDGLNSPNHAIIQNLINQLVDQSVPRPSCVPYKYVPISVLMIEANGSILYKEYEGMIAESCTCR
a: < 7.10

Cited source for all entries: paper PMC9234707
